Tested on: Lolium perenne (LOLPE)
test_method_notes: Post-emergence herbicidal activity, glasshouse pot test
Type: in vivo
test_context: Lolium perenne, rate 500 g/ha, evaluated after 14 or 15 days, read-out: Post-emergence activity, LOLPE (100=total damage to plant; 0=no damage to plant)
Label key: 1.0 means pest or weed control at 500 g/ha under 60%; 0.0 means pest or weed control at 500 g/ha of 60% or more.

Solved entries:
Request: Consider CCC[S+]([O-])C(C)CC1CC(=O)C(c2c(CC)cc(C)cc2CC)=C(O)C1 (stereo not drawn) . Does its pest or weed control at 500 g/ha lie strictly below 60%?
Response: 0.0

Request: Consider CCc1cc(C)cc(CC)c1C1=C(O)CC(C2(SC)CC2)CC1=O (stereo not drawn) . Does its pest or weed control at 500 g/ha lie strictly below 60%?
Response: 0.0

Request: Consider `CCc1cc(CC)c(C2=C(OC(=O)C(C)(C)C)CC3(CCOCC3)CC2=O)c(CC)c1` . Does its pest or weed control at 500 g/ha lie strictly below 60%?
Response: 1.0

Request: Consider CCc1cc(C)cc(CC)c1C1=C(O)CC(COCCOC)CC1=O (stereo not drawn) . Does its pest or weed control at 500 g/ha lie strictly below 60%?
Response: 0.0

Request: Consider CCc1cc(C)cc(C)c1C1=C(O)CC(CCSC)CC1=O (stereo not drawn) . Does its pest or weed control at 500 g/ha lie strictly below 60%?
Response: 0.0

***
Request: Consider CCSC(C)CC1CC(=O)C(c2c(C)cc(C)cc2C)=C(O)C1 (stereo not drawn) . Does its pest or weed control at 500 g/ha lie strictly below 60%?
Response: 1.0

Request: Consider `Cc1cc(C)c(C2=C(O)CC3(CCSCC3)CC2=O)c(C)c1` . Does its pest or weed control at 500 g/ha lie strictly below 60%?
Response: 1.0

Request: Consider `CCc1cc(C)cc(C)c1C1=C(O)CC2(CCOCC2)CC1=O` . Does its pest or weed control at 500 g/ha lie strictly below 60%?
Response: 0.0
